- system.under.test: dipeptidyl peptidase-IV (DPP-IV) from porcine kidney (Sus scrofa, UniProt P22411)
- Sequence (P22411 whole entry): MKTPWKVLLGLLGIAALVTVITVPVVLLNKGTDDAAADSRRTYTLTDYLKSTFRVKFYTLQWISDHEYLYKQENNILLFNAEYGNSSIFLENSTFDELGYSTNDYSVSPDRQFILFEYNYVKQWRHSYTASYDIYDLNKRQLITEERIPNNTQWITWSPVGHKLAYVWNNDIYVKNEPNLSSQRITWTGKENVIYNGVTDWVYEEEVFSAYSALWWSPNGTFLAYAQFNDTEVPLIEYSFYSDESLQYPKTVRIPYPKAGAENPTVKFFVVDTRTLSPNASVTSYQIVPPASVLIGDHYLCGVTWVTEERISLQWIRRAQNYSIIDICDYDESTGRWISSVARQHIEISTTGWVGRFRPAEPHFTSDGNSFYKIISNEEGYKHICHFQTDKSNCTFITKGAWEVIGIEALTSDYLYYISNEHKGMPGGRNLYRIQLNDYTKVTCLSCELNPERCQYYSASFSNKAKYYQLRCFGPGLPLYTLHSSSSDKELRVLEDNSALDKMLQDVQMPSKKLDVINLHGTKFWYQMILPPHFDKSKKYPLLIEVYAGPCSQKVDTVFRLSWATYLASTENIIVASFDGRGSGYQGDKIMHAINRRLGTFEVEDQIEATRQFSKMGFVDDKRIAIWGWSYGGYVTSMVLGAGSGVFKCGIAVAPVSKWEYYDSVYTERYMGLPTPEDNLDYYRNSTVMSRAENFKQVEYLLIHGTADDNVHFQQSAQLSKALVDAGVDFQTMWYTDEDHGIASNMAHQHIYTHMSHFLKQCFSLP
- protocol.details: Dipeptidyl peptidase-IV
- Assay type: biochemical
- settings: read-out: % Inhibition at 50 μg/mL (DPP-IV)
property.label: inhibition at 50 µg/mL (%)

Examples with their reported inhibition at 50 µg/mL follow.
molecule	value.units	inhibition at 50 µg/mL
CC(C)=CCCC(C)=CCCC(C)=CCc1c[nH]c2ccccc12	%	27.1
O=c1cc(-c2ccccc2)oc2cc(O)cc(O)c12	%	41.2
COc1cc(OC)c2c(c1O)OC(c1ccccc1)CC2=O (centres unmarked) [Compound 7, 8-hydroxy-5,7-dimethoxyflavanone]	%	27.8

A. O=C1C[C@@H](c2ccccc2)Oc2cc(O)cc(O)c21
B. CC[C@H](C)[C@H](N)C(=O)N1CCC[C@H]1C(=O)N[C@H](C(=O)O)[C@@H](C)CC [Diprotin A, diprotin A, reference compound]
INPUT: Hey, which is lower on measured inhibition at 50 µg/mL, A or B ? Choose, then provide that item's label.
OUTPUT: A
